Target Under Test: Hormone-sensitive lipase (Rattus norvegicus)
Test Protocol: Inhibition of HSL in Wistar rat isolated fat cells by spectrophotometric assay
Could you please report measured IC50 for the items listed next?
The answer should read as a number with its unit following.

Short answer for CCCCCCSc1nc(-c2ccc(Cl)cc2)nn1C(=O)N(C)c1ccccc1 : IC50 was 7.06 nM

Short answer for CSc1nc(-c2ccc(-c3ccccc3)cc2)nn1C(=O)N(C)C : IC50 was 26.5 nM

Short answer for CCOC(=O)C1CCN(C(=O)n2oc(=O)c(C(C)C)c2C)CC1 : IC50 was 6 nM

Short answer for Cc1ccc(-c2nc(SCC(F)(F)F)n(C(=O)N(C)C)n2)cc1 : IC50 was 10.6 nM

Short answer for Cc1c(CC(C)C)c(=O)on1C(=O)N1CCC(C)CC1 : IC50 was 3 nM

Short answer for Cc1c(C(C)C)c(=O)on1C(=O)N1CCCC(C)(C)C1 : IC50 was 7 nM

Short answer for O=C(N1CCCCC1)n1nc(-c2ccc(Cl)cc2)nc1SC1CCCCC1 : IC50 was 882 nM

Short answer for Cc1c(C2CCS(=O)(=O)CC2)c(=O)on1C(=O)N1CCCCC1 : IC50 was 55 nM

Short answer for Cc1c(C(C)C)c(=O)on1C(=O)N(C)Cc1ccccc1 : IC50 was 5 nM

Short answer for COC(=O)c1nnn(CCc2c[nH]c3ccccc23)c1C(=O)OC : IC50 was 5000 nM

Short answer for Cc1c(C(C)C)c(=O)on1C(=O)N1CCC(C)CC1 : IC50 was 6 nM

====

Could you please report measured inhibition for the items listed next?
Target Under Test: UniProt:P15304
Sequence (whole entry): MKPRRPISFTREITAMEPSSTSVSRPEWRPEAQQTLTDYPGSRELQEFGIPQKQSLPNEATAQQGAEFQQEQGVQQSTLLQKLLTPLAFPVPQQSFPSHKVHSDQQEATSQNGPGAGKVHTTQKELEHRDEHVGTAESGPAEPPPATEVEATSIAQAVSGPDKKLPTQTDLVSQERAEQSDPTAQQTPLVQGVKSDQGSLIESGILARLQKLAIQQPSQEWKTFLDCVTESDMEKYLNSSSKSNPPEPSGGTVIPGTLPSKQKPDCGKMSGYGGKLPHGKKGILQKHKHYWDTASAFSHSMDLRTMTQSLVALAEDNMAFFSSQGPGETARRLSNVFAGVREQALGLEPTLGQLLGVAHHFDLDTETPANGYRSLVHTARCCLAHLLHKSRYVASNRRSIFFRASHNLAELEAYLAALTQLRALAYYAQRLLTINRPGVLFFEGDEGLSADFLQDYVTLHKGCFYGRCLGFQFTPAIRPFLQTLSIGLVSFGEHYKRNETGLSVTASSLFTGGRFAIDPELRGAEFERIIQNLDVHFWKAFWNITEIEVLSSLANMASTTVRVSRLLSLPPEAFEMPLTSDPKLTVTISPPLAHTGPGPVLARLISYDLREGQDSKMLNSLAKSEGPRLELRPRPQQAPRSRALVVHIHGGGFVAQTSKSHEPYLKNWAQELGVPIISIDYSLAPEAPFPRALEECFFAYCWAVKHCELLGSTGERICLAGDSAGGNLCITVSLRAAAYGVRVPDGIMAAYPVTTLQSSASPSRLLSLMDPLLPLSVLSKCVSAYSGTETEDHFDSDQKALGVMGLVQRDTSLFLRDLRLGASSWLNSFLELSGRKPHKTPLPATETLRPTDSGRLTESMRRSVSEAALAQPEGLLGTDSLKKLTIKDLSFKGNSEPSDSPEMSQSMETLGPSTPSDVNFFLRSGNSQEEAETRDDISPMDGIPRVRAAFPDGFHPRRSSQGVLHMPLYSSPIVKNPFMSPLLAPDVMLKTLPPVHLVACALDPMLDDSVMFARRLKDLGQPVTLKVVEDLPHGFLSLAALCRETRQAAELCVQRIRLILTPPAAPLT
Test Protocol: Inhibition of HSL in Wistar rat isolated fat cells at 10 uM by spectrophotometric assay
Provide the reading as a plain figure in %.

Short answer for COc1ccc(Cc2ccc3nc(O)cc(C)c3c2)cc1S(=O)(=O)O : inhibition was 24

Short answer for COc1ccc(C(=O)c2ccccc2)c(O)c1 [OXYBENZONE] : inhibition was 44

Short answer for O=C(OCc1ccccc1)c1ccccc1 [BENZYL BENZOATE] : inhibition was 66

Short answer for CCOC(=O)c1c(C)c2c(n1C)CC/C(=C\N1CCCCC1)C2=O : inhibition was 10

Short answer for COc1cc(CNC(=O)CCCC/C=C/C(C)C)ccc1O : inhibition was 33

Short answer for O=S(=O)(Oc1ccc(Cl)cc1)c1ccc(Cl)cc1 : inhibition was 26
